Task for the reader: assign each of the following molecules its reported Compound recovery.
- experiment notes: Drug excretion in cynomolgus monkey urine treated with [14C]brivanib alaninate at 10 mg/kg, po administered as single dose via gavage by HPLC analysis
- Assay type: ADME, organism-based, Macaca fascicularis
- conditions: in vivo
Supply the numeric figure in %, leaving out any unit text.

Prompt line: If you can, please state the reported Compound recovery value of "Cc1cc2c(F)c(Oc3ncnn4cc(O[C@@H]5O[C@H](C(=O)O)[C@@H](O)[C@H](O)[C@H]5O)c(C)c34)ccc2[nH]1" .
Response line: 0.8

Prompt line: Sample "Cc1c(OC[C@@H](C)O)cn2ncnc(Oc3ccc4[nH]c(C(=O)O)cc4c3F)c12" — what was its Compound recovery?
Response line: 1.1

Prompt line: Given "Cc1cc2c(F)c(Oc3ncnn4cc(OS(=O)(=O)O)c(C)c34)ccc2[nH]1" , state its recorded Compound recovery.
Response line: 0.7
